Exercise: for every item that follows, state its recorded cytotoxicity at 10 µM.
# test.method.notes: Toxicity liver stage against HepG2, at 10uM
# Format: cell-based
# Set-up: test concentration 10 uM, cell line HepG2-A16-CD81EGFP
# applied.conditions: human, HepG2-A16-CD81EGFP cells; read-out: INHIBITION
Express the result in % but write the number alone.

Complete the entry with cytotoxicity at 10 µM for CC1CCN(c2cncc(CCC3CCCN3)n2)CC1 (stereo unspecified)
4.52

Complete the entry with cytotoxicity at 10 µM for O=C(Cc1c(F)cccc1Cl)NC1CCCCNC1=O (stereo unspecified)
1.91

Complete the entry with cytotoxicity at 10 µM for Cn1nc(COc2cccnc2)c2c1CCN(c1cnccn1)C2
1.34

Complete the entry with cytotoxicity at 10 µM for Cc1ccc(CNC(=O)N2CCCC(NS(C)(=O)=O)C2)cc1 (stereo unspecified)
2.73

Complete the entry with cytotoxicity at 10 µM for Cc1ccc(CC(=O)N2CCCC(c3n[nH]c4nccnc34)C2)cc1 (stereo unspecified)
-22.2

Complete the entry with cytotoxicity at 10 µM for COC(CNC(=O)C1CC1)c1ccc(C)s1 (stereo unspecified)
-3.08

###

# test.method.notes: Toxicity liver stage against HepG2, at 10uM
# Type: cell-based
# Set-up: test concentration 10 uM, cell line HepG2-A16-CD81EGFP
# applied.conditions: human, HepG2-A16-CD81EGFP cells; read-out: INHIBITION
property.measured: cytotoxicity at 10 µM (%)
Express the result in % but write the number alone.

Complete the entry with cytotoxicity at 10 µM for Cc1c(C(=O)N(C)CC(C)O)sc2nc(C(F)(F)F)ccc12 (stereo unspecified)
-0.943

Complete the entry with cytotoxicity at 10 µM for OC(c1ccccn1)C1CCN(Cc2cc3n(n2)CCNC3)CC1 (stereo unspecified)
15.4

Complete the entry with cytotoxicity at 10 µM for Cc1nc(O)c2nnn(C[C@H]3CCCN3C(=O)c3cccs3)c2n1
-25.6

Complete the entry with cytotoxicity at 10 µM for O=C(Nc1cccnc1N1CCSCC1)c1ccc2c(c1)CCO2
-0.678

Complete the entry with cytotoxicity at 10 µM for CN1C(=O)CC2(CCN(S(=O)(=O)c3cccs3)CC2)c2ccccc21
1.86

Complete the entry with cytotoxicity at 10 µM for CNC(=O)c1c[nH]nc1C1CCCN1c1ncccn1 (stereo unspecified)
10

Complete the entry with cytotoxicity at 10 µM for CN1CCC(c2cccc(Cc3ccc(C(F)(F)F)cc3)n2)CC1
3

Complete the entry with cytotoxicity at 10 µM for COCCN(Cc1nccs1)C(=O)c1c(C)cc(C)[nH]c1=O
0.0773

Complete the entry with cytotoxicity at 10 µM for CC(C)NC(=O)c1nnn(-c2cccc(C(F)(F)F)c2)c1N
-11.5

Complete the entry with cytotoxicity at 10 µM for CCc1ccc(NC(=O)CCN2CC(n3nc(C)cc3C)C2)cc1
-8.03

Complete the entry with cytotoxicity at 10 µM for Cc1n[nH]c(C)c1CNc1nc(-c2ccco2)nc2c1CCNCC2
-3.43

###

# test.method.notes: Toxicity liver stage against HepG2, at 10uM
# Assay type: cell-based
# Parameters: test concentration 10 uM, cell line HepG2-A16-CD81EGFP
# applied.conditions: human, HepG2-A16-CD81EGFP cells; read-out: INHIBITION
Quick rule: cytotoxicity at 10 µM of at least -20% means Fulfilled, below that means Not fulfilled.

Quick check: does O=C(NCCc1cccs1)NC1CCN(c2ncccn2)CC1 have cytotoxicity at 10 µM greater than or equal to -20%?
Not fulfilled

Quick check: does Nc1nccc(C2CCCCN2Cc2cccc(F)c2)n1 (configuration not stated) have cytotoxicity at 10 µM greater than or equal to -20%?
Fulfilled

Quick check: does COc1cc(CNC(=O)C(C)SC)cc(Br)c1OC (configuration not stated) have cytotoxicity at 10 µM greater than or equal to -20%?
Fulfilled

Quick check: does Cc1cc(C)n(CC2CN(CC(=O)N3CCC3)CCO2)n1 (configuration not stated) have cytotoxicity at 10 µM greater than or equal to -20%?
Fulfilled

Quick check: does Cc1cccc(CN2CCC(c3csc4nccn34)CC2)n1 have cytotoxicity at 10 µM greater than or equal to -20%?
Fulfilled

Quick check: does COc1nc2c(cc1C(=O)N1C[C@H](N)C[C@H]1C(=O)NC(C)C)CCC2 have cytotoxicity at 10 µM greater than or equal to -20%?
Fulfilled

Quick check: does CC1CN(Cc2ccccc2Cn2cccn2)CCN1C (configuration not stated) have cytotoxicity at 10 µM greater than or equal to -20%?
Not fulfilled

Quick check: does CNC(=O)c1cccc(CNC(C)c2cc(Cl)ccc2OC)c1 (configuration not stated) have cytotoxicity at 10 µM greater than or equal to -20%?
Fulfilled

Quick check: does O=C(O)c1coc(COc2cccc3cnccc23)n1 have cytotoxicity at 10 µM greater than or equal to -20%?
Not fulfilled

Quick check: does O=C1[C@@H]2CC[C@@H](CN(C3CSCCSC3)C2)N1Cc1cscn1 have cytotoxicity at 10 µM greater than or equal to -20%?
Fulfilled

Quick check: does CC(C)Cn1c2c(ccc1=O)CC(NC(=O)c1ccsc1)CC2 (configuration not stated) have cytotoxicity at 10 µM greater than or equal to -20%?
Not fulfilled

Quick check: does Cc1cccc(-c2nc(C)nn2CC(=O)NC(C)C)c1 have cytotoxicity at 10 µM greater than or equal to -20%?
Fulfilled
